Taken from patent US20240336622A1.

Test system: UWB1 cells
run description: cells
test conditions: read-out: IC50 (μM) UWB1 cells, UWB1 cell viability
Measured IC50, listed per entry for reference.

Take a look at these entries with their results.
{"columns": ["compound", "IC50"],
 "data": [
  ["COC(=O)C[C@H]1[C@@H]2CC3=C(C)[C@H](c4ccc(-c5cc(C(C)(C)C)cc(C(C)(C)C)c5)cc4)C[C@H]3O[C@@H]2[C@@H]2OC(=O)[C@]3(C)C=CC(=O)[C@@]1(C)[C@@H]23 [S-133]", "0.186 µM"],
  ["COC(=O)C[C@H]1[C@@H]2CC3=C(C)[C@@H](c4ccoc4)C[C@@H]3O[C@@H]2[C@@H]2OC(=O)[C@]3(C)C=CC(=O)[C@@]1(C)[C@@H]23 [S-99]", "0.88 µM"]
]}

response.value for COC(=O)C[C@H]1[C@]2(C)C3=C(C)[C@H](c4ccc(C(C)(C)C)cc4)C[C@H]3O[C@@H]2[C@@H]2OC(=O)[C@]3(C)C=CC(=O)[C@@]1(C)[C@@H]23 [S-141] (field: IC50) = 0.248 µM

// IC50 value for COC(=O)C[C@H]1[C@]2(C)C3=C(C)[C@H](c4ccoc4)C[C@H]3O[C@@H]2[C@@H]2OC(=O)[C@]3(C)C=C[C@@H](O)[C@@]1(C)[C@@H]23 [S-55] : > 10 µM

IC50 reported for this compound C=C1[C@H](O)[C@@H]2OC(=O)[C@]3(C)C=CC(=O)[C@@](C)([C@@H]23)[C@H]1CC(=O)OC [S-16] : > 10 µM

----------
Tested on: UWB1 cells
run description: cells
test conditions: read-out: IC50 (μM) UWB1 cells, UWB1 cell viability
Consider the following compounds and their measured IC50 readings.
Write down the numeric answer in µM and omit the unit.

Example compounds with recorded IC50:
{"columns": ["structure smiles string", "assayed target", "IC50 / µM"],
 "data": [
  ["COC(=O)C[C@H]1[C@]2(C)C3=C(C)[C@H](c4ccc(OC(=O)C(C)(C)C)cc4)C[C@H]3O[C@@H]2[C@@H]2OC(=O)[C@]3(C)C=CC(=O)[C@@]1(C)[C@@H]23", "UWB1 cells", 0.564],
  ["COC(=O)C[C@H]1[C@@H]2CC3=C(C)[C@@H](c4ccc(-c5cc(C(C)(C)C)cc(C(C)(C)C)c5)cc4)C[C@H]3O[C@@H]2[C@@H]2OC(=O)[C@]3(C)C=CC(=O)[C@@]1(C)[C@@H]23", "UWB1 cells", 0.0934]
]}

Next up:
Notebook: `COC(=O)C[C@H]1[C@@H]2CC3=C(C)[C@@H](c4ccc(OS(=O)(=O)c5ccc(C)cc5)cc4)C[C@@H]3O[C@@H]2[C@@H]2OC(=O)[C@]3(C)C=CC(=O)[C@@]1(C)[C@@H]23` , IC50 read as 0.119

----------
Here, each record is paired with measured IC50 data.
Test system: UWB1 cells
run description: cells
test conditions: read-out: IC50 (μM) UWB1 cells, UWB1 cell viability
Respond with the bare value in µM.

In the examples that follow, each entry is paired with its recorded IC50.
{"columns": ["compound", "IC50 (µM)"],
 "data": [
  ["C=C1[C@H](O[C@H]2C=C(C)[C@H](c3ccoc3)C2)[C@@H]2OC(=O)[C@]3(C)C=CC(=O)[C@@](C)([C@@H]23)[C@H]1CC(=O)OC [S-54]", 0.265],
  ["COC(=O)C[C@H]1[C@]2(C)C3=C(C)[C@H](c4ccoc4Br)C[C@H]3O[C@@H]2[C@@H]2OC(=O)[C@]3(C)C=CC(=O)[C@@]1(C)[C@@H]23 [S-41]", 0.465],
  ["COC(=O)C[C@H]1[C@@H]2CC3=C(C)[C@H](C4CCCCC4)C[C@@H]3O[C@@H]2[C@@H]2OC(=O)[C@]3(C)C=CC(=O)[C@@]1(C)[C@@H]23 [S-105]", 0.2],
  ["COC(=O)C[C@H]1[C@@H]2CC3=C(C)[C@H](c4ccc(OS(=O)(=O)C(F)(F)F)cc4)C[C@@H]3O[C@@H]2[C@@H]2OC(=O)[C@]3(C)C=CC(=O)[C@@]1(C)[C@@H]23 [S-130]", 0.225]
]}

Now, please, on to the next compound.
get_value(item= COC(=O)C[C@H]1[C@]2(C)C3=C(C)[C@H](c4ccccc4)C[C@H]3O[C@@H]2[C@@H]2OC(=O)[C@]3(C)C=CC(=O)[C@@]1(C)[C@@H]23 [S-101] , readout=IC50) returns 0.3
